measurement.target: recombinant human DPP7 (Homo sapiens)
Construct: purchased R&D Systems
test.details: DPP7 inhibition, fluorogenic substrate Lys-Pro-AMC
Type: biochemical
pIC50: −log10 of the molar value.
Please use Fulfilled whenever pIC50 is not below 6, and Not fulfilled whenever it is.

Example cases with answers are listed next.
>>> category("N#C[C@@H]1CCCN1C(=O)CN1CC[C@H](Oc2ccc(Cl)c3cccnc23)C1")
"Not fulfilled"
>>> category("Cc1cnc2cccc(NC3CCN(CC(=O)N4CCC[C@H]4C#N)CC3)c2c1")
"Not fulfilled"
>>> category("N#C[C@@H]1CC(F)(F)CN1C(=O)CN1CC[C@H](Nc2cccc(-c3ccccc3)c2)C1")
"Fulfilled"
>>> category("CN(c1cccc2ncccc12)[C@@H]1CCN(CC(=O)N2CCC[C@H]2C#N)C1")
"Not fulfilled"
>>> category("Cc1ccc2ncc(N(C)[C@H]3CCN(CC(=O)N4CCC[C@H]4C#N)C3)cc2c1")
"Not fulfilled"

input: API: above_or_equal(metric=pIC50, cutoff=6) for item COc1ccc2nccc(OC3CCN(CC(=O)N4C[C@@H](F)C[C@H]4C#N)CC3)c2c1
output: Not fulfilled

input: Does the reported pIC50 for N#C[C@@H]1CCCN1C(=O)CN1CC[C@H](NC(=O)c2coc3ccccc23)C1 fall at or above the 6 mark?
output: Not fulfilled

input: Please check the record N#C[C@@H]1CCCN1C(=O)CN1CC[C@H](Oc2ccnc3c(C(F)(F)F)cccc23)C1 and state if its pIC50 is at or above 6.
output: Not fulfilled

* * *

measurement.target: recombinant human DPP7 (Homo sapiens)
Construct: purchased R&D Systems
test.details: DPP7 inhibition, fluorogenic substrate Lys-Pro-AMC
Format: biochemical
Answer each item with its documented IC50.
Numbers only, in nM.

Reference set, count: 3
>>> result_number("N#C[C@@H]1CC(F)(F)CN1C(=O)CN1CC[C@H](Oc2cccc3ncccc23)C1")
63.5
>>> result_number("N#C[C@@H]1C[C@H](F)CN1C(=O)CN1CCC(Nc2cccc3ncccc23)CC1")
342
>>> result_number("COc1ccc2c(O[C@H]3CCN(CC(=O)N4CCC[C@H]4C#N)C3)ccnc2c1")
1150

Count: 3. Required value per item: IC50.
1. N#C[C@@H]1CCCN1C(=O)CN1CC[C@H](Oc2cccc3cccnc23)C1
2. N#C[C@@H]1CCCN1C(=O)CN1CC[C@H](Nc2cccc3ncccc23)C1
3. N#C[C@@H]1C[C@H](F)CN1C(=O)CN1CCC(Oc2ccnc3ccc(Cl)cc23)CC1

output:
1. 3560
2. 1220
3. 9230

* * *

measurement.target: recombinant human DPP7 (Homo sapiens)
Construct: purchased R&D Systems
test.details: DPP7 inhibition, fluorogenic substrate Lys-Pro-AMC
Format: biochemical
Please go through the items and note down their IC50.

>>> result("N#C[C@@H]1CCCN1C(=O)CN1CC[C@H](Oc2cccc3[nH]c(=O)ccc23)C1")
"814 nM"
>>> result("COc1ccc2c(OC3CCN(CC(=O)N4C[C@@H](F)C[C@H]4C#N)CC3)ccnc2c1")
"642 nM"
>>> result("N#C[C@@H]1CC(F)(F)CN1C(=O)CN1CC[C@H](Oc2cccc3cnccc23)C1")
"41.6 nM"
>>> result("N#C[C@@H]1C[C@H](F)CN1C(=O)CN1CC[C@H](Nc2cncc3ccoc23)C1")
"346 nM"
>>> result("Cc1ccc2ncccc2c1NC1CCN(CC(=O)N2CCC[C@H]2C#N)CC1")
"> 100000 nM"

Could I get IC50 for every one of these entries?
1. COc1ccc2c(C(=O)N[C@H]3CCN(CC(=O)N4CCC[C@H]4C#N)C3)coc2c1
2. COc1ccc2ncc(N(C)[C@H]3CCN(CC(=O)N4CCC[C@H]4C#N)C3)cc2c1

output:
["2390 nM", "1660 nM"]

input: What value of measured IC50 is listed for N#C[C@@H]1CC(F)(F)CN1C(=O)CN1CC[C@H](Oc2cccc3[nH]c(=O)ccc23)C1 ?
output: 7.6 nM

* * *

measurement.target: recombinant human PREP (Homo sapiens, UniProt P48147)
Construct: purchased R&D System
Sequence (P48147 1-710): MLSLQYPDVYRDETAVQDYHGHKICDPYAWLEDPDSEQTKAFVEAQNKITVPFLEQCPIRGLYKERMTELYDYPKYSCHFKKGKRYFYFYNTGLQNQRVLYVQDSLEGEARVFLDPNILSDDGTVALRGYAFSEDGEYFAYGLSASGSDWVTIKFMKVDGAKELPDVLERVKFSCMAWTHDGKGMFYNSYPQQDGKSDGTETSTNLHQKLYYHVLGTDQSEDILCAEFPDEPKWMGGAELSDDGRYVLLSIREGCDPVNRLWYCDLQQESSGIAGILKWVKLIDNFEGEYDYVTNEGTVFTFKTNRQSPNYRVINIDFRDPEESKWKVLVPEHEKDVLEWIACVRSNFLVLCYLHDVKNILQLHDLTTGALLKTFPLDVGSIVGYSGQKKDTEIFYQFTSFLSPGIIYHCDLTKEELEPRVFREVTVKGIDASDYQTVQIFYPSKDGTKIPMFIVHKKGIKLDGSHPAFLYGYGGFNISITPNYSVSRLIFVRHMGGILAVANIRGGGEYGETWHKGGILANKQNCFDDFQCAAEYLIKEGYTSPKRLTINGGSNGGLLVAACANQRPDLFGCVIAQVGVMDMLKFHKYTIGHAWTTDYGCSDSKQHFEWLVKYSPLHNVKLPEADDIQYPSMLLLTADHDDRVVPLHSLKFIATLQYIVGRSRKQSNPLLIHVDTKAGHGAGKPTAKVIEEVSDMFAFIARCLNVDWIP
test.details: PREP inhibition, fluorogenic substrate Z-Gly-Pro-AMC
Type: biochemical
reported.conditions: Inhibitory Activity (IC50, nM) PREP, recombinant human PREP
Could you please report measured IC50 for the items listed next?
Give bare numbers, in nM.

Take a look at these entries with their results.
>>> result_number("N#C[C@@H]1CCCN1C(=O)CN1CCC(Nc2ccc(C(=O)Nc3cccnc3)c3ncccc23)CC1 [Example 400]")
1960
>>> result_number("Cc1cc(OC2CCN(CC(=O)N3C[C@@H](F)C[C@H]3C#N)CC2)c2cc(F)ccc2n1 [Example 437]")
454
>>> result_number("N#C[C@@H]1C[C@H](F)CN1C(=O)CN1CC[C@H](Nc2ccc(NC(=O)c3ccccc3)c3ncccc23)C1 [Example 298]")
6520

# context switch: different molecule, same IC50
input: Please report the recorded IC50 for N#C[C@@H]1C[C@H](F)CN1C(=O)CN1CC[C@H](Nc2ccc3ncccc3c2)C1 [Example 250] .
output: 2160

* * *

Could you please report measured IC50 for the items listed next?
measurement.target: Recombinant human FAP (Homo sapiens)
Construct: purchased R&D systems
Sequence (Q12884 1-760): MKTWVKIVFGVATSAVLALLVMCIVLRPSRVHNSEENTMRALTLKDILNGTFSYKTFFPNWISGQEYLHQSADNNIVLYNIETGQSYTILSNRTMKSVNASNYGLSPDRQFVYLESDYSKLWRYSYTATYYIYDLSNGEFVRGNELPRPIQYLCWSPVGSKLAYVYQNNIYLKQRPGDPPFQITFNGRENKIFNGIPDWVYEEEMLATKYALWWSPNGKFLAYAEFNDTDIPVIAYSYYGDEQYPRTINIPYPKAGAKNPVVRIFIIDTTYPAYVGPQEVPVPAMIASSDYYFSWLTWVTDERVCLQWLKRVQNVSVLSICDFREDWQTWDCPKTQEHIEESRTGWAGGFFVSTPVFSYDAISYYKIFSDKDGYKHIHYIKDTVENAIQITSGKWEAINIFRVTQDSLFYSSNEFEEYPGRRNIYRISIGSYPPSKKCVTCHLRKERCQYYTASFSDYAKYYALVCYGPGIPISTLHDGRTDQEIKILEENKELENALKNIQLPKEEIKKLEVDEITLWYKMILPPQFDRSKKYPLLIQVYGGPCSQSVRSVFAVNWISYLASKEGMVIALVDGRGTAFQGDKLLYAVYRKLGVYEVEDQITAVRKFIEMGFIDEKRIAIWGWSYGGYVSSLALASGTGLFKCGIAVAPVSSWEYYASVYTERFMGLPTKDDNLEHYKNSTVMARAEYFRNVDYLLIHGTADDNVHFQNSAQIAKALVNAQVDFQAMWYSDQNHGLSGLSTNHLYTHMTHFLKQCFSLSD
test.details: FAP inhibition, fluorogenic substrate Z-Gly-Pro-AMC
Type: biochemical
reported.conditions: recombinant human FAP, substrate Z-Gly-Pro-AMC
Give bare numbers, in nM.

// worked examples, IC50 included
>>> result_number("COc1cnc2cccc(NC3CCN(CC(=O)N4C[C@@H](F)C[C@H]4C#N)CC3)c2c1")
2.1
>>> result_number("N#C[C@@H]1C[C@H](F)CN1C(=O)CN1CCC(Nc2ccc([N+](=O)[O-])c3cnccc23)CC1")
3.7
>>> result_number("CN(c1cccc2ccncc12)C1CCN(CC(=O)N2C[C@@H](F)C[C@H]2C#N)CC1")
46.2
>>> result_number("N#C[C@@H]1C[C@H](F)CN1C(=O)CN1CCC(Oc2cccc3cnccc23)CC1")
2.5
>>> result_number("N#C[C@@H]1C[C@H](F)CN1C(=O)CN1CC[C@H](Nc2cccc3ncc(F)cc23)C1")
1
>>> result_number("COc1ccc(N[C@H]2CCN(CC(=O)N3C[C@@H](F)C[C@H]3C#N)C2)c2cccnc12")
1.1
>>> result_number("CN(c1ccc2cccnc2c1)C1CCN(CC(=O)N2CCC[C@H]2C#N)CC1")
14

Okay, next one:
input: Sample CN(c1ccc2ccncc2c1)C1CCN(CC(=O)N2C[C@@H](F)C[C@H]2C#N)CC1 — what was its IC50?
output: 1.8
